target: Histamine H3 receptor (Homo sapiens) (UniProt Q9Y5N1); conditions: Compound concentration 10 µM
Sequence (Q9Y5N1 whole entry): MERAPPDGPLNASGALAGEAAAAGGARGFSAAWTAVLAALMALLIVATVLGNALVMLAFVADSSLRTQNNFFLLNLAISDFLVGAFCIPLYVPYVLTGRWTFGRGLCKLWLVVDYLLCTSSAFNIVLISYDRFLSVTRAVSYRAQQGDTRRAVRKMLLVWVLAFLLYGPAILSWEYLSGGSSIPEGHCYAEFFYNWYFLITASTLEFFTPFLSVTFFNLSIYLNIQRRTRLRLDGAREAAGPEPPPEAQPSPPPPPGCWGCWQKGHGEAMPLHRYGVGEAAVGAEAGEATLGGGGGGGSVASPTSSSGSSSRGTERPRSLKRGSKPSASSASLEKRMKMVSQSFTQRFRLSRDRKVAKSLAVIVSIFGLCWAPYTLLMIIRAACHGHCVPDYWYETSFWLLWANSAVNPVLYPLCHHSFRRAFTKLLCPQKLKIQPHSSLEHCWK
Description: PDSP Primary Binding target: HRH3 - Compounds are tested at 10 uM concentration, plate are incubated at room temperature in the dark for 90 minutes. Reaction are stopped by vacuum filtration onto 0.3% polyethyleneimine soaked filter mats using Filtermate harvester. Scintilation cocktail is then melted onto microwave-dried filters on a hot plate and the radio activity is counted in Microbia counter.
measurement name: inhibition

Before answering, review these 5 worked examples.
Clc1cccc(COc2cncc(N3CCNCC3)n2)c1: 20.2%
Cc1nc(-c2ccc(-c3ccc(C(=O)N4CCc5cc6c(cc54)C4(CCN(C)CC4)CO6)cc3)c(C)c2)no1: 35.6%
N#Cc1c(O)nc(SCc2cccc(F)c2F)nc1C1CC1: 18.8%
Cc1cccc([C@H](C)c2c[nH]cn2)c1C: 2.75%
O=C(O)c1n[nH]c2c1C[C@H]1C[C@@H]21: -7.4%

Ask: Which value of inhibition has been reported for `CCCCN1CCC(COC(=O)c2cc(Cl)c(N)c3c2OCCO3)CC1` in the records?
Reply: 32.8%

Ask: // query inhibition value for entry `N#Cc1ccc(NC(=O)Nc2ccccc2Br)c2nn[nH]c12`
Reply: 3.06%

Ask: Can you share its inhibition? I mean this compound: `CC1CCN(CC[C@H]2CCCN2S(=O)(=O)c2cccc(O)c2)CC1`
Reply: -4.13%

Ask: // query inhibition value for entry `CCc1nn2c(C)cc(C)nc2c1Cc1ccc(-c2nnc(C3CCNCC3)o2)cc1`
Reply: -8.3%

Ask: What value of measured inhibition is listed for `C[C@@H](N)Cc1c[nH]cn1` ?
Reply: 103%

Ask: Which inhibition value belongs to `c1cc(CN2CCCNCCNCCCNCC2)ccc1CN1CCCNCCNCCCNCC1` ?
Reply: 80.5%

Ask: What value of measured inhibition is listed for `CNc1nc(NCc2ccc(NS(C)(=O)=O)cc2Cl)cc(-c2ccccn2)n1` ?
Reply: -8.26%

Ask: inhibition for `O=C(O)CC/C=C\C[C@@H]1CO[C@H](c2ccccc2Cl)O[C@@H]1c1ccccc1O` ?
Reply: 6.14%

Ask: Looking for the measured inhibition of `N#Cc1ccc2[nH]cc(CCCCN3CCN(c4ccc5oc(C(N)=O)cc5c4)CC3)c2c1` , can you help?
Reply: 31.9%

Ask: For the compound `Cc1nnn(-c2ccc(-c3ccc(C4(C(=O)O)CC4)cc3)cc2)c1NC(=O)O[C@H](C)c1ccccc1` , what inhibition is on record?
Reply: -3.65%

Ask: I'd like to know its inhibition. The compound in question is `CCCNS(=O)(=O)Nc1ncnc(OCCOc2ncc(Br)cn2)c1-c1ccc(Br)cc1`
Reply: 1.52%

Ask: inhibition for CC(C)NCC(O)COc1ccc(CCOCC2CC2)cc1 (stereo not given) ?
Reply: 28.3%

Ask: Using the record for `CSc1ccc(C(=O)N[C@@H]2CCCC[C@@H]2NC(=O)CNC(=O)c2cc(C(F)(F)F)ccc2NC(=O)NC(C)C)cc1` , report its inhibition.
Reply: 4.61%

Ask: # query: inhibition of entry `CS(=O)(=O)NC[C@H]1CC[C@H](Nc2nc3c(s2)CCSc2ccccc2-3)CC1`
Reply: -7.45%

Ask: Given `NC[C@@H]1O[C@H](C23CC4CC(CC(C4)C2)C3)Cc2c1ccc(O)c2O` , state its recorded inhibition.
Reply: 24.8%

Reference for the values: ChEMBL document CHEMBL5442219
